Assay info: recombinant UMI read abundance after kanamycin selection (control-corrected) (log10(CPM+1)); higher = more efficient recombination; extreme values may be limits of the assay; sequences stand for … in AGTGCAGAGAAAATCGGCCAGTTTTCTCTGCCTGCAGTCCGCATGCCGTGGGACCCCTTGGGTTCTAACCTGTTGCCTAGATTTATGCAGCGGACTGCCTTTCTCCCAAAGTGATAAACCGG…AGGTTGGTTTCACT; site = the 11-nt donor;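 note: IS621 bridge recombinase in Escherichia coli cells against a fixed T5 target plasmid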
Assign YES to entries whose recombinant UMI read abundance (log10) meets or exceeds 0.9; assign NO to the rest.

- Macromolecule sequence: "CCAACTTCATGGACCGGTTTTCCCGGTAATCCGTATTTGGA (site CCAACTTCTTC)"
  Class: "NO"
- Macromolecule sequence: "AGGGATCCATGGACCGGTTTTCCCGGTAATCCGTATTTGTT (site AGGGATCCTAA)"
  Class: "NO"
- Macromolecule sequence: "ATCTAAGCATGGACCGGTTTTCCCGGTAATCCGTATTTGAG (site ATCCAAGCTCT)"
  Class: "YES"
- Macromolecule sequence: "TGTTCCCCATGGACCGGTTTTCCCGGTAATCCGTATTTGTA (site TTTTCCCCTTA)"
  Class: "NO"
- Macromolecule sequence: "GTATGTACATGGACCGGTTTTCCCGGTAATCCGTATTTGTA (site GTATGCACTTA)"
  Class: "YES"
- Macromolecule sequence: "TCCCACACATGGACCGGTTTTCCCGGTAATCCGTATTTGTA (site ACCCACACTTA)"
  Class: "NO"
- Macromolecule sequence: "ATGTACGCATGGACCGGTTTTCCCGGTAATCCGTATTTGGC (site ATGTAGGCTGC)"
  Class: "NO"
